Assay: Volume of distribution in ICR mouse at 1 mg/kg, iv measured upto 24 hrs by LC-MS/MS analysis
Type: ADME, organism-based
Settings: in vivo
readout_type: Vd (L/kg)

- compound_smiles: "C=CCn1c(=O)c2cnc(Nc3ccc(N4CCN(CCO)CC4)cc3)nc2n1-c1cccc(-c2cnccn2)n1"
  Vd, L/kg: 17

P = C=CCn1c(=O)c2cnc(Nc3ccc(N4CCC(N5CCN(C)CC5)CC4)cc3)nc2n1-c1cccc(-c2cnccn2)n1
Q = C=CCn1c(=O)c2cnc(Nc3ccc(N4CCC(N5CCN(C)CC5)CC4)cc3)nc2n1-c1cccc(-c2ncccn2)n1
Task: Between the entries labelled P and Q , which has a larger Vd value on record? Mark your answer with the label of the selected entry.
Output: P
(P: 5.6 L/kg, Q: 3.72 L/kg)

* * *

Target: Wee1-like protein kinase (Homo sapiens, UniProt P30291)
Sequence (P30291 whole entry, the tested form may be a part): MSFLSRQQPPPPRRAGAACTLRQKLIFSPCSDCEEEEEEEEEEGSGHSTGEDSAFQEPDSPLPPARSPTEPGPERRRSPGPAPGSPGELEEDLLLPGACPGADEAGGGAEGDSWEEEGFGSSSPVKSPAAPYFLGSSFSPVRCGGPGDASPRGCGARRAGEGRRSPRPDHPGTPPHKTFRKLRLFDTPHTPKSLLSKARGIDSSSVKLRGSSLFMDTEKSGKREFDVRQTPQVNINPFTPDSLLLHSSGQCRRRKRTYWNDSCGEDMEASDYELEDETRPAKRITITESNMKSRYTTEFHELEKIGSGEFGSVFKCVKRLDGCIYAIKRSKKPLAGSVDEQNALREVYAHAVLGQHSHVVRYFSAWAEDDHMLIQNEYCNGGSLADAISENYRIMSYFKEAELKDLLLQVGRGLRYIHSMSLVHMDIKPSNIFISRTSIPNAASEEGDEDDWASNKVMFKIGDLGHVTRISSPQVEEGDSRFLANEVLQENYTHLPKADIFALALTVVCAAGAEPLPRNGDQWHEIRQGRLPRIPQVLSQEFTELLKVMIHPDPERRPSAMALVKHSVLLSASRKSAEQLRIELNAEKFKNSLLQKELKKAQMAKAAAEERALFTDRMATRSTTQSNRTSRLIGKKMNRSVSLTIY
Experiment: Inhibition of human Wee1 (215 to 647 residues) using polyornithine/tyrosine (4:1) as substrate incubated for 5 mins in presence of ATP by micro beta plate reader analysis
readout_type: IC50 (nM)

- compound_smiles: "C=CCn1c(=O)c2cnc(Nc3ccc(C4CCN(C)CC4)cc3)nc2n1-c1cccc(-c2cccnn2)n1"
  test_system: "Wee1-like protein kinase (Homo sapiens, UniProt P30291)"
  unit_abbrev: "nM"
  IC50: 1.8

P = C=CCn1c(=O)c2cnc(Nc3ccc(N4CCN(C)CC4)cc3)nc2n1-c1cccc(-c2ncccn2)n1
Q = CN1CCN(c2ccc(Nc3ncc4c(=O)n(CC5CC5)n(-c5cccc(-c6cnccn6)n5)c4n3)cc2)CC1
R = C=CCn1c(=O)c2cnc(Nc3ccc(N4CCN(C)CC4)cc3)nc2n1-c1cccc(-n2cc(F)cn2)n1
Task: Given 3 molecules, produce a descending ranking by IC50. Provide the labels, sequenced as the question asks.
Output: Q, R, P

P = CC(C)n1c(=O)c2cnc(Nc3ccc(N4CCN(C)CC4)cc3)nc2n1-c1cccc(-c2cnccn2)n1
Q = C=CCn1c(=O)c2cnc(Nc3ccc(N4C[C@@H](C)N[C@@H](C)C4)cc3)nc2n1-c1cccc(-c2cccnn2)n1
Task: # query: argmin of IC50 over P and Q Refer to your chosen entry by its label in the reply.
Output: Q
(Q: 2.1 nM, P: 3.4 nM)

* * *

Test: Metabolic stability in human liver microsome assessed as parent compound remaining measured at 60 mins by LCMS/MS analysis
Format: ADME
Details: liver microsomes, read-out: Stability
readout_type: remaining at 1 h (%)

Recorded results for 3 molecules are shown here.
- compound_smiles: "C=CCn1c(=O)c2cnc(Nc3ccc(N4C[C@@H](C)N[C@@H](C)C4)cc3)nc2n1-c1cccc(-c2cnccn2)n1"
  readout_type: "remaining at 1 h"
  readout_value: 44.1
- compound_smiles: "C=CCn1c(=O)c2cnc(Nc3ccc(N4CCN(C)CC4)c(OC)c3)nc2n1-c1cccc(-c2cccnn2)n1"
  readout_type: "remaining at 1 h"
  readout_value: 34.8
- compound_smiles: "C=CCn1c(=O)c2cnc(Nc3ccc(N4CCN(C)CC4)cc3)nc2n1-c1cccc(-c2cccnn2)n1"
  readout_type: "remaining at 1 h"
  readout_value: 46.5

I = C=CCn1c(=O)c2cnc(Nc3ccc4c(c3)CN(C)CC4)nc2n1-c1cccc(-c2cccnn2)n1
II = C=CCn1c(=O)c2cnc(Nc3ccc(N4C[C@H]5C[C@@H]4CN5C)cc3)nc2n1-c1cccc(-c2cnccn2)n1
Task: Return label of the item with the larger remaining at 1 h. Candidates: I , II . Please respond with the label that marks your chosen entry.
Output: II
(II: 73.5%, I: 42.2%)

P = C=CCn1c(=O)c2cnc(Nc3ccc(N4CCC(N5CCN(C)CC5)CC4)cc3)nc2n1-c1cccc(-c2ncccn2)n1
Q = C=CCn1c(=O)c2cnc(Nc3ccc(N4CCN(C)CC4)cc3)nc2n1-c1cccc(-c2ncc(F)cn2)n1
R = C=CCn1c(=O)c2cnc(Nc3ccc(N4CCN(C)CC4)cc3)nc2n1-c1cccc(-n2cc(F)cn2)n1
Task: Arrange these 3 molecules in increasing order of remaining at 1 h. Thanks in advance for listing the labels in the requested order.
Output: R, Q, P
(R: 3.89%, Q: 49.8%, P: 88.9%)
